experiment-description: Oral bioavailability in Sprague-Dawley rat at 30 mg/kg in Ca salt in 0.5% methocel
Assay type: ADME, organism-based
measurement-parameters: in vivo
observed-property: bioavailability (%)
Give the number; % is assumed, so skip it.

Requested field: bioavailability. Item: COCCCc1cc(CN(C(=O)[C@H]2CNCC[C@@H]2c2ccc(OCCOc3c(Cl)cc(C)cc3Cl)cc2)C2CC2)cc(OC[C@H]2C[C@@H]2C(=O)O)c1
0

====

experiment-description: AUC (0 to 24 hrs) in Sprague-Dawley rat at 30 mg/kg, po in lyposin 2
Format: ADME, organism-based
Design: time < 24 hr, dose 30 mg/kg, route oral
measurement-parameters: plasma
observed-property: AUC(0-t) at 24 h (µM·h)
Give the number; µM·h is assumed, so skip it.

Requested field: AUC(0-t) at 24 h. Item: COCCCc1cc(CN(C(=O)[C@H]2CNCC[C@@H]2c2ccc(OCCOc3c(Cl)cc(C)cc3Cl)cc2)C2CC2)cc(OC[C@H]2C[C@@H]2C(=O)O)c1
0.03

====

experiment-description: AUC (0 to 24 hrs) in Sprague-Dawley rat at 30 mg/kg, po as 0.5% methocel suspension
Format: ADME, organism-based
Parameters: time < 24 hr, dose 30 mg/kg, route oral
measurement-parameters: plasma
The reader will find reported AUC(0-t) at 24 h values listed item by item below.
Give the number; µM·h is assumed, so skip it.

Below: 3 compounds and their reported AUC(0-t) at 24 h.
COCCCc1cc(CN(C(=O)[C@H]2CNCC[C@@H]2c2ccc(OCCOc3c(Cl)cc(C)cc3Cl)cc2)C2CC2)cc(OC[C@H]2C[C@@H]2C(=O)OCOC(=O)C(C)(C)C)c1 :: 0.2
COCCCc1cc(CN(C(=O)[C@H]2CNCC[C@@H]2c2ccc(OCCOc3c(Cl)cc(C)cc3Cl)cc2)C2CC2)cc(OCC(C)(C)C(=O)O)c1 :: 1.1
COCCCc1cc(CN(C(=O)[C@H]2CNCC[C@@H]2c2ccc(OCCOc3c(Cl)cc(C)cc3Cl)cc2)C2CC2)cc(OCCC(C)(C)C(=O)O)c1 :: 2.1

Requested field: AUC(0-t) at 24 h. Item: CCOC(=O)[C@H]1C[C@@H]1COc1cc(CCCOC)cc(CN(C(=O)[C@H]2CNCC[C@@H]2c2ccc(OCCOc3c(Cl)cc(C)cc3Cl)cc2)C2CC2)c1
5.7

Requested field: AUC(0-t) at 24 h. Item: COCCCc1cc(CN(C(=O)[C@H]2CNCC[C@@H]2c2ccc(OCCOc3c(Cl)cc(C)cc3Cl)cc2)C2CC2)cc(OC[C@H]2C[C@@H]2C(=O)OCC(=O)N(C)C)c1
3.5

Requested field: AUC(0-t) at 24 h. Item: COCCCc1cc(CN(C(=O)[C@H]2CNCC[C@@H]2c2ccc(OCCOc3c(Cl)cc(C)cc3Cl)cc2)C2CC2)cc(OCC2(CC(=O)O)CC2)c1
0.2

Requested field: AUC(0-t) at 24 h. Item: COCCCc1cc(CN(C(=O)[C@H]2CNCC[C@@H]2c2ccc(OCCOc3c(Cl)cc(C)cc3Cl)cc2)C2CC2)cc(OCC[C@](C)(OC)C(=O)O)c1
1.2

Requested field: AUC(0-t) at 24 h. Item: COCCCc1cc(CN(C(=O)[C@H]2CNCC[C@@H]2c2ccc(OCCOc3c(Cl)cc(C)cc3Cl)cc2)C2CC2)cc(OCCC2(C(=O)O)CCCC2)c1
3.3

Requested field: AUC(0-t) at 24 h. Item: CCC(CC)(CCOc1cc(CCCOC)cc(CN(C(=O)[C@H]2CNCC[C@@H]2c2ccc(OCCOc3c(Cl)cc(C)cc3Cl)cc2)C2CC2)c1)C(=O)O
6.1

Requested field: AUC(0-t) at 24 h. Item: COCCCc1cc(CN(C(=O)[C@H]2CNCC[C@@H]2c2ccc(OCCOc3c(Cl)cc(C)cc3Cl)cc2)C2CC2)cc(OC[C@H]2C[C@@H]2C(=O)O)c1
0.1

Requested field: AUC(0-t) at 24 h. Item: COCCCc1cc(CN(C(=O)[C@H]2CNCC[C@@H]2c2ccc(OCCOc3c(Cl)cc(C)cc3Cl)cc2)C2CC2)cc(OCCCC(C)(C)C(=O)O)c1
16

====

target: UniProtKB P00797
Sequence (P00797 whole entry): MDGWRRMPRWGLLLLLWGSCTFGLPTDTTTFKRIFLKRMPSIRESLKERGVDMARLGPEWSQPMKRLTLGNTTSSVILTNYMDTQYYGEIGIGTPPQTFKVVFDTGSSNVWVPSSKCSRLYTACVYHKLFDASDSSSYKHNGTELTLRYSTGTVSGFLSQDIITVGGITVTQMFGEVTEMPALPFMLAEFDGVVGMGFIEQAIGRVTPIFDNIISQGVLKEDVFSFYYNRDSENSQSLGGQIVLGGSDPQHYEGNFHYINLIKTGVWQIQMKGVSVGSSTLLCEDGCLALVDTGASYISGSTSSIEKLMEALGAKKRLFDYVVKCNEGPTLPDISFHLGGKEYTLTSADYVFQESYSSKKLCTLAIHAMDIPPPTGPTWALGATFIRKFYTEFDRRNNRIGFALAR
experiment-description: Inhibition of human recombinant renin in human citreated-plasma
observed-property: IC50 (nM)
Give the number; nM is assumed, so skip it.

Below: 5 compounds and their reported IC50.
COCCCc1cc(CN(C(=O)[C@H]2CNCC[C@@H]2c2ccc(OCCOc3c(Cl)cc(C)cc3Cl)cc2)C2CC2)cc(OCC(C)(C)C(=O)O)c1 :: 29.6
COCCCc1cc(CN(C(=O)[C@H]2CNCC[C@@H]2c2ccc(OCCOc3c(Cl)cc(C)cc3Cl)cc2)C2CC2)cc(OCC2(CC#N)CC2)c1 :: 10.9
COCCCc1cc(CN(C(=O)[C@H]2CNCC[C@@H]2c2ccc(OCCOc3c(Cl)cc(C)cc3Cl)cc2)C2CC2)cc(OC[C@H]2C[C@@H]2C(=O)O)c1 :: 1.1
COCCCc1cc(CN(C(=O)[C@H]2CNCC[C@@H]2c2ccc(OCCOc3c(Cl)cc(C)cc3Cl)cc2)C2CC2)cc(OCC2(Cc3nn[nH]n3)CC2)c1 :: 5.3
COCCCc1cc(CN(C(=O)[C@H]2CNCC[C@@H]2c2ccc(OCCOc3c(Cl)cc(C)cc3Cl)cc2)C2CC2)cc(OCCC2(C(=O)O)CCCC2)c1 :: 12.4

Requested field: IC50. Item: CCOC(=O)[C@H]1C[C@@H]1COc1cc(CCCOC)cc(CN(C(=O)[C@H]2CNCC[C@@H]2c2ccc(OCCOc3c(Cl)cc(C)cc3Cl)cc2)C2CC2)c1
11

====

target: Cytochrome P450 3A4 (Homo sapiens)
Sequence (P08684 whole entry): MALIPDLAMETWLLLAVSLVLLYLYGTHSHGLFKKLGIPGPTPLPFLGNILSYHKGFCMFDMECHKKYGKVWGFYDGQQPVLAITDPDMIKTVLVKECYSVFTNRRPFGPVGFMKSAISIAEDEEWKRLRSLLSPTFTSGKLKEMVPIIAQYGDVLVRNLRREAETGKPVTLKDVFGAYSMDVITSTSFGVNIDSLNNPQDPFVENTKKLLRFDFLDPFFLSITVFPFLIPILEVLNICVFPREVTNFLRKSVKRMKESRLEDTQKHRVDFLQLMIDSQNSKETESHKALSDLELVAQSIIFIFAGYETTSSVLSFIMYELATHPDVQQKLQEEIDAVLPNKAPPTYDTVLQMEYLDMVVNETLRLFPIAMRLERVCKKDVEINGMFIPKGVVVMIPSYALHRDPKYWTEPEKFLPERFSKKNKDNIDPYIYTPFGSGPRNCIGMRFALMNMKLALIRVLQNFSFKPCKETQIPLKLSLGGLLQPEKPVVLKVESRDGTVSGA
experiment-description: Inhibition of human CYP3A4 in human liver microsomes assessed as formation of 6beta-hydroxy-testosterone using testosterone as substrate by high throughput mass spectrometry preincubated for 30 mins in presence of NADPH
Format: ADME, Microsome
The reader will find reported pIC50 values listed item by item below.
The quantity pIC50 is defined as the negative base-10 logarithm of the molar concentration.

Below: 2 compounds and their reported pIC50.
COCCCc1cc(CN(C(=O)[C@H]2CNCC[C@@H]2c2ccc(OCCOc3c(Cl)cc(C)cc3Cl)cc2)C2CC2)cc(OCC(C)(C)O)c1 :: 5.25
COCCCc1cc(CN(C(=O)[C@H]2CNCC[C@@H]2c2ccc(OCCOc3c(Cl)cc(C)cc3Cl)cc2)C2CC2)cc(OCC2(CC#N)CC2)c1 :: 5.85

// next item, pIC50 requested
Requested field: pIC50. Item: CCOC(=O)[C@H]1C[C@@H]1COc1cc(CCCOC)cc(CN(C(=O)[C@H]2CNCC[C@@H]2c2ccc(OCCOc3c(Cl)cc(C)cc3Cl)cc2)C2CC2)c1
5.85

====

target: Voltage-gated inwardly rectifying potassium channel KCNH2 (Homo sapiens, UniProt Q12809)
Sequence (Q12809 whole entry): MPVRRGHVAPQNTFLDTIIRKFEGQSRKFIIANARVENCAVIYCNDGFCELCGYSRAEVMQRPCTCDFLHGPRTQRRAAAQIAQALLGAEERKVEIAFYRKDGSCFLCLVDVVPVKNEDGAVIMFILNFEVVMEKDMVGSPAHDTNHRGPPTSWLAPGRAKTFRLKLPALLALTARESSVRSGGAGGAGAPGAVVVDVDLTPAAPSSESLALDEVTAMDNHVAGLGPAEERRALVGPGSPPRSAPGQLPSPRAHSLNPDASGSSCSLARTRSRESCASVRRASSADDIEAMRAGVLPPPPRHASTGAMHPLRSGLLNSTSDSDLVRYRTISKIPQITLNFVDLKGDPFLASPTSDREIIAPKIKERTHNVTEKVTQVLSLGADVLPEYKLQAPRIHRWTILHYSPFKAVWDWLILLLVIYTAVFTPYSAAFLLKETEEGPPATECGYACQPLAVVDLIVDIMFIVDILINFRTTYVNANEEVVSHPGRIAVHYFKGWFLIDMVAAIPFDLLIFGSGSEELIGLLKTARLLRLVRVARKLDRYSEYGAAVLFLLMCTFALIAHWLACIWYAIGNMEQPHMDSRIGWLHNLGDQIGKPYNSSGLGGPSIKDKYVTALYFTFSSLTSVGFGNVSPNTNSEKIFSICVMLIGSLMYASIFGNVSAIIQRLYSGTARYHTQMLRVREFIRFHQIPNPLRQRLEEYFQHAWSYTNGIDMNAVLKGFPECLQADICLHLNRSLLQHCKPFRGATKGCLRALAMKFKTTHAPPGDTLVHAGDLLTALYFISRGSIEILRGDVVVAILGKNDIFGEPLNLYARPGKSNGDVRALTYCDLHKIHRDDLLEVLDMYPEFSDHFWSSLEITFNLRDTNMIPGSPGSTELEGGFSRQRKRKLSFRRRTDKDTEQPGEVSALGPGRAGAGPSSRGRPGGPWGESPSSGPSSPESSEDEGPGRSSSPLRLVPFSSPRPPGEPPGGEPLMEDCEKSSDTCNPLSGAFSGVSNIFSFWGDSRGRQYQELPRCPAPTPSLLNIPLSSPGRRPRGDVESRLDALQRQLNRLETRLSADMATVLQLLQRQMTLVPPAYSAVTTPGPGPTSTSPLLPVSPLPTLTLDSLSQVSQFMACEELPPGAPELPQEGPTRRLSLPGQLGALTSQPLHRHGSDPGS
The reader will find reported Ki values listed item by item below.
Just so you know, I need the unit written after the number.

Below: 8 molecules and their reported Ki.
CCC(CC)(CCOc1cc(CCCOC)cc(CN(C(=O)[C@H]2CNCC[C@@H]2c2ccc(OCCOc3c(Cl)cc(C)cc3Cl)cc2)C2CC2)c1)C(=O)O :: 400 nM
COCCCc1cc(CN(C(=O)[C@H]2CNCC[C@@H]2c2ccc(OCCOc3c(Cl)cc(C)cc3Cl)cc2)C2CC2)cc(OCC2(CC#N)CC2)c1 :: 60 nM
COCCCc1cc(CN(C(=O)[C@H]2CNCC[C@@H]2c2ccc(OCCOc3c(Cl)cc(C)cc3Cl)cc2)C2CC2)cc(OC[C@H]2C[C@@H]2C(=O)NS(C)(=O)=O)c1 :: 500 nM
COCCCc1cc(CN(C(=O)[C@H]2CN(C(=O)OCc3oc(=O)oc3C)CC[C@@H]2c2ccc(OCCOc3c(Cl)cc(C)cc3Cl)cc2)C2CC2)cc(OC[C@H]2C[C@@H]2C(=O)O)c1 :: 3700 nM
COCCCc1cc(CN(C(=O)[C@H]2CNCC[C@@H]2c2ccc(OCCOc3c(Cl)cc(C)cc3Cl)cc2)C2CC2)cc(OCCCC(C)(C)C(=O)O)c1 :: 200 nM
COCCCc1cc(CN(C(=O)[C@H]2CNCC[C@@H]2c2ccc(OCCOc3c(Cl)cc(C)cc3Cl)cc2)C2CC2)cc(OCC(C)(C)C(=O)O)c1 :: 600 nM
COCCCc1cc(CN(C(=O)[C@H]2CNCC[C@@H]2c2ccc(OCCOc3c(Cl)cc(C)cc3Cl)cc2)C2CC2)cc(OC[C@H]2C[C@@H]2C(=O)O)c1 :: 1070 nM
CCNC(=O)NCCCOc1cc(CCCOC)cc(CN(C(=O)[C@H]2CNCC[C@@H]2c2ccc(OCCOc3c(Cl)cc(C)cc3Cl)cc2)C2CC2)c1 :: 150 nM

Param readout= Ki; system= Voltage-gated inwardly rectifying potassium channel KCNH2 (Homo sapiens, UniProt Q12809); entry= COCCCc1cc(CN(C(=O)[C@H]2CNCC[C@@H]2c2ccc(OCCOc3c(Cl)cc(C)cc3Cl)cc2)C2CC2)cc(OCCOC)c1 ; returns value.
80 nM

Param readout= Ki; system= Voltage-gated inwardly rectifying potassium channel KCNH2 (Homo sapiens, UniProt Q12809); entry= COCCCc1cc(CN(C(=O)[C@H]2CNCC[C@@H]2c2ccc(OCCOc3c(Cl)cc(C)cc3Cl)cc2)C2CC2)cc(OCC[C@](C)(OC)C(=O)O)c1 ; returns value.
2300 nM
